Origin of values: paper PMC12582985

tested on: THLE‐2 cells; test: CCK‐8 cell viability assay, non‐tumor THLE‐2; assay type: cell-based, human; conditions: CCK‐8, 48 h, triplicate; peptides 5–45 μg·mL^−1; 5‐FU positive control 0.1–5 mM; vs negative control
QUANTITY_KIND: viability of non‐tumor THLE‐2 cells

[
  {
    "SEQUENCE_STRING": "RFFESFGDL [RCP‐7, synthesized 9‐mer renal cell peptide from GLOBIN domain‐containing protein, protamex‐digested]",
    "TARGET_OF_ASSAY": "THLE‐2 cells",
    "ENDPOINT_VALUE": "decreased the viability"
  },
  {
    "SEQUENCE_STRING": "SSGCPPLPPRRGAPAGWLSH [RCP‐2, synthesized 20‐mer renal cell peptide from Brain‐derived neurotrophic factor, trypsin digested]",
    "TARGET_OF_ASSAY": "THLE‐2 cells",
    "ENDPOINT_VALUE": "decreased the viability"
  },
  {
    "SEQUENCE_STRING": "GPAGPQGPR [RCP‐3, synthesized 9‐mer renal cell peptide from Collagen alpha‐1 (I) chain, trypsin digested]",
    "TARGET_OF_ASSAY": "THLE‐2 cells",
    "ENDPOINT_VALUE": "decreased the viability"
  }
]

---

tested on: THLE‐2 cells; test: CCK‐8 cell viability assay, non‐tumor THLE‐2; assay type: cell-based, human; details: CCK‐8, 48 h, triplicate; peptides 5–45 μg·mL^−1; 5‐FU positive control 0.1–5 mM; vs negative control

[
  {
    "SEQUENCE_STRING": "PAPPKPEPK [RCP‐9, synthesized 9‐mer renal cell peptide from Non‐histone chromosomal protein HMG‐17, trypsin digested]",
    "viability of non‐tumor THLE‐2 cells": "decreased the viability"
  },
  {
    "SEQUENCE_STRING": "GIYAPDSPRAF [RCP‐8, synthesized 11‐mer renal cell peptide from Vanin 1, protamex‐digested]",
    "viability of non‐tumor THLE‐2 cells": "decreased the viability"
  },
  {
    "SEQUENCE_STRING": "IYAPDSPRAF [RCP‐10, synthesized 10‐mer renal cell peptide from Vanin 1, protamex‐digested]",
    "viability of non‐tumor THLE‐2 cells": "decreased the viability"
  },
  {
    "SEQUENCE_STRING": "FAGDDAPR [RCP‐4, synthesized 8‐mer renal cell peptide from Actin, cytoplasmic 2, trypsin digested]",
    "viability of non‐tumor THLE‐2 cells": "decreased the viability"
  }
]

---

assay: Solubility of the synthesized peptides; type: physicochemical; conditions: solvent given for the synthesized peptide (GenScript)
QUANTITY_KIND: Solubility

[
  {
    "SEQUENCE_STRING": "FAGDDAPR [RCP‐4, synthesized 8‐mer renal cell peptide from Actin, cytoplasmic 2, trypsin digested]",
    "ENDPOINT_VALUE": "Water, pH 7.0"
  },
  {
    "SEQUENCE_STRING": "PAPPKPEPK [RCP‐9, synthesized 9‐mer renal cell peptide from Non‐histone chromosomal protein HMG‐17, trypsin digested]",
    "ENDPOINT_VALUE": "Water, pH 7.0"
  },
  {
    "SEQUENCE_STRING": "QQHMKFGKKCWRKVWALLYA [RCP‐1, synthesized 20‐mer renal cell peptide from Docking protein 3, trypsin digested]",
    "ENDPOINT_VALUE": "0.1% Dimethylsulfoxide"
  }
]
